target: UniProt:P00734
Quick reference for pIC50 among some compounds
# pIC50: negative log10 of molar concentration; output just the value

Worked cases, answers included:
O=C(O)c1ccc(O)c(O)c1    2.96
O=C(O)c1ccc(O)cc1 [4-HA, 4-hydroxybenzoic acid]    2.77

--- query ---
## Task Lab note: need pIC50 for COc1ccc(C(=O)O)cc1O on UniProt:P00734, anyone have it?
## Result 3.03

---

biological target: human FXIIIa (Homo sapiens)
Sequence (P00488 39-732 limits assumed): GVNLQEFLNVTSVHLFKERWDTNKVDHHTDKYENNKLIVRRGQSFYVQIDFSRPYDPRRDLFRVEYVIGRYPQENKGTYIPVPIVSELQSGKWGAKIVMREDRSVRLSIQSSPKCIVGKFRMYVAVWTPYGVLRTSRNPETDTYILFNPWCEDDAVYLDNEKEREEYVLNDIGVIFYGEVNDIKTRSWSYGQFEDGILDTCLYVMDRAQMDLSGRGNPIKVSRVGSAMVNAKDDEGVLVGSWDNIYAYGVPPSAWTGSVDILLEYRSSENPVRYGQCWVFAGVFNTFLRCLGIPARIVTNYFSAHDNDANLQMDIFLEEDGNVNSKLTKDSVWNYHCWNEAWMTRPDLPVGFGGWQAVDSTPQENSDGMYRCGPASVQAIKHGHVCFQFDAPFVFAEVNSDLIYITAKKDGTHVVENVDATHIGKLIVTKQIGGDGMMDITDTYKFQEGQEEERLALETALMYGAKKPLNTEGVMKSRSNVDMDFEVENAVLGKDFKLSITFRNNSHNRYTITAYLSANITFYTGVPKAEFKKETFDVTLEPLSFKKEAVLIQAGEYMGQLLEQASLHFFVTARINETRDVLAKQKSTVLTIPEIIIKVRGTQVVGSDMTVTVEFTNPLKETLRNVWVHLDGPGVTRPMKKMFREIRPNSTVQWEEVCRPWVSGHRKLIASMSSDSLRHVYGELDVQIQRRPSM
RECORDED ENDPOINT: Ki
State the value with its unit after it.

O=C(O)c1ccc(O)cc1 [4-HA, 4-hydroxybenzoic acid]    1960 µM

--- query ---
## Task Consider the molecule shown here: O=C(O)c1ccc(O)c(O)c1 [PA, protocatechuic acid] What is its recorded Ki?
## Result 1630 µM
